Tested on: thrombin induced platelet aggregation
Measurement Notes: Thrombin induced platelet aggregation (Chronolog aggregometer)
Type: cell-based
Condition Context: Platelet; 0.1 U/ml thrombin, varying concentrations
Procedure: Platelets treated with 100 μM WHI-P131 or the parent compound, WHI-P258 (negative control), were stimulated with 0.1 U/ml thrombin or 10 μg/ml collagen. WHI-P131 is described above, WHI-P258 is an unsubstituted quinazoline and structurally shown below. Platelet aggregation with respect to control was monitored in a Chronolog Model 560 Dual Chamber Platelet Aggregometer. […] WHI-P258 had no effect on the thrombin response (FIG. 1C). […]
Measured Parameter: pIC50
Give bare numbers, as −log10 of the molar value.

Input line: Read off the recorded pIC50 for `COc1cc2ncnc(Nc3ccc(O)cc3)c2cc1OC`
Output line: 5.82
